Each recorded value in this set is attributed to patent US20250250357A1.

- system-tested: T1, human MSLN-R1-his protein (human, UniProt Q13421 296-390)
- T1 construct: Made in HEK293E cells, purified on nickel column; also called hMSLN-R1-his; human MSLN-R1 protein; not shown: His tag
- T1 chain: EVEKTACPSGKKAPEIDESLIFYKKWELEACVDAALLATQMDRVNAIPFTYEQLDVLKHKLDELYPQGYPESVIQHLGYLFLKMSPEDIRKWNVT
- procedure-summary: ELISA, coated antigen, no antibody (blank)
property-name: OD450
# print the numeric value only

- binder: "S009-F7.33.24 chimeric antibody (antibody, human IgG1, kappa, V domains shown, Human-murine chimeric antibody, human IgG1/kappa constant regions) VH: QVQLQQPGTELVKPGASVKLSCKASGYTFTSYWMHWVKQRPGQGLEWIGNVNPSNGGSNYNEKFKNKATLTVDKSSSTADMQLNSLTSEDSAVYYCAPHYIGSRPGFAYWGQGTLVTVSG VL: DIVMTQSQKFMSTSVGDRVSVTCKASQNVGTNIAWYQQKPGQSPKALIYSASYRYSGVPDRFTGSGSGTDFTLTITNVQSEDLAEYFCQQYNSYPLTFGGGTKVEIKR"
  OD450: 0.06
- binder: "S009-F7.11.11 chimeric antibody (antibody, human IgG1, kappa, V domains shown, Human-murine chimeric antibody, human IgG1/kappa constant regions) VH: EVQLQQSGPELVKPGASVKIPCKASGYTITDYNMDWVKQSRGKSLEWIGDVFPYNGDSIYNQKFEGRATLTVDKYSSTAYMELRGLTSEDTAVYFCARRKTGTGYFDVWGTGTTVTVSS VL: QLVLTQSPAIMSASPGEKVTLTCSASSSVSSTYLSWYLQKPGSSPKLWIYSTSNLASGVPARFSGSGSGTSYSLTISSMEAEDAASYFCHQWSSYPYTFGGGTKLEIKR"
  OD450: 0.07
- binder: "S009-F7.2.3 chimeric antibody (antibody, human IgG1, kappa, V domains shown, Human-murine chimeric antibody, human IgG1/kappa constant regions) VH: ELQLVESGGDLVKPGGSLKLSCAASGFTFSSNGMSWLRQTPDKRLEWVATISSGGRYTYYPDSVKGRFTISRDNAKNTLYLQMSSLKSEDTAMYYCARRGIYDYFDCWGQGTTLTVSS VL: DIQMTQSPASLSISVGETVTITCRASENIHSSLAWYQQKQGKSPQLLVYAATNLADGVPSRFSGSGSGSQYSLKINSLQSEDFGTYYCQHFWGTPWTFGGGTKLDIKR"
  OD450: 0.07
- binder: "S009-F7.18.10 chimeric antibody (antibody, human IgG1, kappa, V domains shown, Human-murine chimeric antibody, human IgG1/kappa constant regions) VH: QVQLQQSGAELVRPGTSVKVSCKASGYAFTNYLIEWVKQRPGQGLEWIGVINPGSGGTKYNEKFKGKATLTADKSSSTAYMQLSSLTSEDSAVYFCASDYDYDPFAYWGQGTLVTVSA VL: DIVMTQSHKFMSTSVGDRVSITCKASQDVSTAVAWYQRKPGQSPKLLIYWASTRHTGVPDRFTGSGSGTDYTLTISYMQAEDLALYYCQQHYSTPYTFGGGTKLEIKR"
  OD450: 0.08

Shift focus to the following entry.
Consider the binder S009-F7.12.13 chimeric antibody (antibody, human IgG1, kappa, V domains shown, Human-murine chimeric antibody, human IgG1/kappa constant regions) VH: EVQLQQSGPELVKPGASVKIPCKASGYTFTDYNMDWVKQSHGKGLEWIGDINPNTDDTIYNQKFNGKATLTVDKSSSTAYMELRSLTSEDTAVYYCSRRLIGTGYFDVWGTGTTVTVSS VL: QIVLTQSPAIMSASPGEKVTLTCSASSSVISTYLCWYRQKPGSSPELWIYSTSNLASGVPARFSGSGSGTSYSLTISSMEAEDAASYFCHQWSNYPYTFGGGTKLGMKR and give its recorded OD450.
0.06
